Tested on: panel of nearly 500 cancer cell lines
measurement_notes: Cancer Cell Line Encyclopedia profiling, 3-day CellTiter-Glo
Assay type: cell-based
protocol_conditions: Homo sapiens, SK-HEP1
property_label: EC50 (µM)
# value in µM; strip the unit string

panel of nearly 500 cancer cell lines / EC50 / CN(C)C(=O)c1cc2cnc(Nc3ccc(N4CCNCC4)cn3)nc2n1C1CCCC1 [Ribociclib] : value?
0.373

panel of nearly 500 cancer cell lines / EC50 / CC(=O)c1c(C)c2cnc(Nc3ccc(N4CCNCC4)cn3)nc2n(C2CCCC2)c1=O [Palbociclib, reference compound] : value?
0.516

###

Test system: panel of nearly 500 cancer cell lines
measurement_notes: Cancer Cell Line Encyclopedia profiling, 3-day CellTiter-Glo
Assay type: cell-based
protocol_conditions: sw480 (large_intestine); read-out: IC50
pIC50: −log10 of the molar value.
property_label: pIC50

Which pIC50 is listed for CC(=O)c1c(C)c2cnc(Nc3ccc(N4CCNCC4)cn3)nc2n(C2CCCC2)c1=O [Palbociblib] ?
< 5.10
